Source of measurements: patent US8759333B2

Target Desc: mutant MGL (Homo sapiens, UniProt Q99685, L169S/L176S)
Construct: purified mutant MGL (mut-MGLL 11-313 L179S L186S)
Sequence (Q99685 1-303 L169S/L176S): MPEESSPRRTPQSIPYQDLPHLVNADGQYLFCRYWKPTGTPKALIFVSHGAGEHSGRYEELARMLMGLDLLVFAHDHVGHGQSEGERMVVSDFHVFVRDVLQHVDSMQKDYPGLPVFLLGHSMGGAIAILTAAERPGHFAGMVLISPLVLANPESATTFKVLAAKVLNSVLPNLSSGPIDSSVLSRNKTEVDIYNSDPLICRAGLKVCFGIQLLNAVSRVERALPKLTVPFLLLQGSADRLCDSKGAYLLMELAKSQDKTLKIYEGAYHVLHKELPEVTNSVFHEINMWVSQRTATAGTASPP
Test Details: MGL ThermoFluor Assay - Mutant
Measurement Parameters: 0.07 mg/ml mutant MGL, 100 μM ANS, pH 7.0
Property Name: Kd (µM)

Some entries whose results are on file:
- Compound: "Cc1c(C(=O)N2CC(N3CC(NC(=O)c4cscn4)C3)C2)sc2cc(C(F)(F)F)ccc12 [Cpd 67]"
  Recorded Measurement: 0.0107
- Compound: "Cc1c(C(=O)N2CC(N3CC(NC(=O)c4nccs4)C3)C2)sc2cc(C(F)(F)F)ccc12 [Cpd 56]"
  Recorded Measurement: 0.00215
- Compound: "O=C(NC1CN(C2CN(C(=O)c3nc4cc(C(F)(F)F)ccc4s3)C2)C1)c1nccs1 [Cpd 47]"
  Recorded Measurement: 2.5

I = O=C(NC1CN(C2CN(C(=O)c3ccc(-c4ccccc4)cc3)C2)C1)c1ccccc1 [Cpd 39]
II = O=C(c1sc2cc(Br)ccc2c1Cl)N1CC(N2CC(N3Cc4ccccc4C3=O)C2)C1 [Cpd 73]
Request: Response body: label of entry with the larger Kd; valid values I , II . Pick one and reply with its label.
Result: I

* * *

Target Desc: mutant MGL (Homo sapiens, UniProt Q99685, L169S/L176S)
Construct: purified mutant MGL (mut-MGLL 11-313 L179S L186S)
Test Details: MGL ThermoFluor Assay - Mutant
Measurement Parameters: 0.07 mg/ml mutant MGL, 100 μM ANS, pH 7.0
Method: The ThermoFluor (TF) assay is a 384-well plate-based binding assay that measures thermal stability of proteins^1,2. The experiments were carried out using instruments available from Johnson & Johnson Pharmaceutical Research & Development, LLC. TF dye used in all experiments was 1,8-ANS (Invitrogen: A-47). […] The Kd values for certain compounds of Formula (I) were determined from a fit of the equation to the concentration-response plot of the fractional activity as a function of Tm. […]
Property Name: Kd (nM)

- Smiles Notation: "O=C(NC1CN(C2CN(C(=O)c3ccc(-c4ccc(C(F)(F)F)cc4)cc3)C2)C1)c1nccs1"
  Kd, nM: 51
- Smiles Notation: "Cc1cc(-c2cccc(C(F)(F)F)c2)ccc1C(=O)N1CC(N2CC(N3Cc4scnc4C3=O)C2)C1"
  Kd, nM: 215
- Smiles Notation: "O=C(NC1CN(C2CN(C(=O)c3ccc4c(ccn4-c4ccc(F)cc4)c3)C2)C1)c1cscn1"
  Kd, nM: 44
- Smiles Notation: "O=C(NC1CN(C2CN(C(=O)c3ccc4ccn(-c5ccccc5)c4c3)C2)C1)c1nccs1"
  Kd, nM: 446
- Smiles Notation: "O=C(NC1CN(C2CN(C(=O)c3ccc(-c4cccc(C(F)(F)F)c4)cc3)C2)C1)c1cscn1"
  Kd, nM: 22

a = O=C(NC1CN(C2CN(C(=O)c3ccc4nc(-c5ccccc5)oc4c3)C2)C1)c1nccs1
b = O=C(c1sc2cc(-c3ccccc3)ccc2c1Cl)N1CC(N2CC(N3Cc4ccccc4C3=O)C2)C1
c = O=C(c1cc2ccc(Br)cc2s1)N1CC(N2CC(N3Cc4ccccc4C3=O)C2)C1
Request: List from greatest to least Kd. Please list each label once, in the requested order.
Result: a, c, b

* * *

Target Desc: mutant MGL (mut-MGLL 11-313 L179S L186S) (Homo sapiens, UniProt Q99685, L169S/L176S)
Construct: purified mutant MGL (mut-MGLL 11-313 L179S L186S)
Sequence (Q99685 1-303 L169S/L176S): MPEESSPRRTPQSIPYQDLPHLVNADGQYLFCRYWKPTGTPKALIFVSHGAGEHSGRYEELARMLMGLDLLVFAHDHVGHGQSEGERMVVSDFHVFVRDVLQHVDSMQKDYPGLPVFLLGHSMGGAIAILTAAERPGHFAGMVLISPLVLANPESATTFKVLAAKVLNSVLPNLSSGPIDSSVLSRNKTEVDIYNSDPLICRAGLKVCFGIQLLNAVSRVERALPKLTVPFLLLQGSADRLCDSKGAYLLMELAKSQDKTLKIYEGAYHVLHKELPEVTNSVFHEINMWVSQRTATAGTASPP
Test Details: MGL Enzyme Activity Assay, purified mutant MGL, 4MU-B substrate
Measurement Parameters: mutant MGL 5 nM, 4MU-B 10 μM, 37° C.; read-out: MGL mutant inh IC50
Property Name: IC50 (nM)

Some entries whose results are on file:
- Molecule: "O=C(NC1CN(C2CN(C(=O)c3ccc4nc(-c5ccccc5)sc4c3)C2)C1)c1nccs1 [Cpd 4]"
  Target Desc: "mutant MGL (mut-MGLL 11-313 L179S L186S) (Homo sapiens, UniProt Q99685, L169S/L176S)"
  IC50 [nM]: 7
- Molecule: "O=C(c1ccc(Br)cc1)N1CC(N2CC(N3Cc4ccccc4C3=O)C2)C1 [Cpd 96]"
  Target Desc: "mutant MGL (mut-MGLL 11-313 L179S L186S) (Homo sapiens, UniProt Q99685, L169S/L176S)"
  IC50 [nM]: 4670
- Molecule: "O=C(NC1CN(C2CN(C(=O)c3ccc4c(Br)cccc4c3)C2)C1)c1ccccc1 [Cpd 24]"
  Target Desc: "mutant MGL (mut-MGLL 11-313 L179S L186S) (Homo sapiens, UniProt Q99685, L169S/L176S)"
  IC50 [nM]: 99
- Molecule: "O=C(NC1CN(C2CN(C(=O)c3ccc4c(ccn4-c4ccccc4)c3)C2)C1)c1nccs1 [Cpd 13]"
  Target Desc: "mutant MGL (mut-MGLL 11-313 L179S L186S) (Homo sapiens, UniProt Q99685, L169S/L176S)"
  IC50 [nM]: 19
- Molecule: "CS(=O)(=O)c1cccc(-c2ccc3sc(C(=O)N4CC(N5CC(N6Cc7ccccc7C6=O)C5)C4)cc3c2)c1 [Cpd 82]"
  Target Desc: "mutant MGL (mut-MGLL 11-313 L179S L186S) (Homo sapiens, UniProt Q99685, L169S/L176S)"
  IC50 [nM]: 22

A = O=C(c1ccc2cc(-c3ccccc3)ccc2c1)N1CC(N2CC(N3Cc4ccccc4C3=O)C2)C1 [Cpd 69]
B = O=C(NC1CN(C2CN(C(=O)c3ccc4nc(Br)sc4c3)C2)C1)c1cscn1 [Cpd 46]
Request: Given the listed items, does A or B have the lesser reported IC50? Pick one and reply with its label.
Result: A
(A: 8 nM, B: 3750 nM)

* * *

Target Desc: mutant MGL (mut-MGLL 11-313 L179S L186S) (Homo sapiens, UniProt Q99685, L169S/L176S)
Construct: purified mutant MGL (mut-MGLL 11-313 L179S L186S)
Test Details: MGL Enzyme Activity Assay, purified mutant MGL, 4MU-B substrate
Assay type: biochemical
Measurement Parameters: mutant MGL 5 nM, 4MU-B 10 μM, 37° C.; read-out: MGL mutant inh IC50
pIC50: −log10 of the molar value.
Property Name: pIC50

Some entries whose results are on file:
- Compound: "O=C(NC1CN(C2CN(C(=O)c3cc4cc(C(F)(F)F)ccc4s3)C2)C1)c1ccccc1 [Cpd 44]"
  Property Name: "pIC50"
  Recorded Measurement: 5.74
- Compound: "O=C(NC1CN(C2CN(C(=O)c3cc4ccc(C(F)(F)F)cc4s3)C2)C1)c1nccs1 [Cpd 7]"
  Property Name: "pIC50"
  Recorded Measurement: 8.00
- Compound: "O=C(c1ccc2cc(Br)ccc2c1)N1CC(N2CC(N3Cc4ccccc4C3=O)C2)C1 [Cpd 90]"
  Property Name: "pIC50"
  Recorded Measurement: 6.81
- Compound: "O=C(c1ccc2c(ccn2-c2ccccc2)c1)N1CC(N2CC(N3Cc4ccccc4C3=O)C2)C1 [Cpd 85]"
  Property Name: "pIC50"
  Recorded Measurement: 7.44

1 = O=C(NC1CN(C2CN(C(=O)c3ccc4c(ccn4S(=O)(=O)c4ccccc4)c3)C2)C1)c1nccs1 [Cpd 3]
2 = O=C(c1ccc2c(ccn2-c2ccccc2C(F)(F)F)c1)N1CC(N2CC(N3Cc4ccccc4C3=O)C2)C1 [Cpd 89]
3 = O=C(c1ccc2nc(-c3ccccc3)oc2c1)N1CC(N2CC(N3Cc4ccccc4C3=O)C2)C1 [Cpd 84]
4 = O=C(c1cc2cc(Br)ccc2s1)N1CC(N2CC(N3Cc4ccccc4C3=O)C2)C1 [Cpd 93]
Request: Rank items: key pIC50, increasing. Please list each label once, in the requested order.
Result: 4, 2, 3, 1
(4: 6.44, 2: 7.01, 3: 7.51, 1: 8.22)
